- test description: repeated administration of graded doses of F-DXR and L-DXR
- Assay type: in vivo, mice
- test conditions: mouse, in vivo, iv, 10 mg/kg, male, day 42, 10 mg/kg; read-out: % Surviving
reported property: survival at 1008 h (%)
State just the number; it will be interpreted in %.

# input # get_value(readout='survival at 1008 h', item= COc1cccc2c1C(=O)c1c(O)c3c(c(O)c1C2=O)C[C@@](O)(C(=O)CO)C[C@@H]3O[C@H]1C[C@H](N)[C@H](O)[C@H](C)O1 [DXR, doxorubicin] )
# output 87

----------
- test description: single injection survival with graded doses of F-DXR and L-DXR
- Set-up: species or system mice
- test conditions: mouse, in vivo, iv; 15 mg/kg i.v., 90 days
reported property: mortality at 2160 h

# input # get_value(readout='mortality at 2160 h', item= COc1cccc2c1C(=O)c1c(O)c3c(c(O)c1C2=O)C[C@@](O)(C(=O)CO)C[C@@H]3O[C@H]1C[C@H](N)[C@H](O)[C@H](C)O1 )
# output 100%

----------
- test description: organ distribution of DXR after administration free or in liposomes
- Format: in vivo
- test conditions: skeletal muscle; 1 hr; read-out: DXR level in Skeletal Muscle
reported property: concentration at 1 h (ng/g)
State just the number; it will be interpreted in ng/g.

# input # get_value(readout='concentration at 1 h', item= COc1cccc2c1C(=O)c1c(O)c3c(c(O)c1C2=O)C[C@@](O)(C(=O)CO)C[C@@H]3O[C@H]1C[C@H](N)[C@H](O)[C@H](C)O1 )
# output 2300

----------
- test description: organ distribution of DXR after administration free or in liposomes
- Format: in vivo
- test conditions: heart; 1 hr; read-out: DXR level in Heart
reported property: concentration at 1 h (ng/g)
State just the number; it will be interpreted in ng/g.

# input # get_value(readout='concentration at 1 h', item= COc1cccc2c1C(=O)c1c(O)c3c(c(O)c1C2=O)C[C@@](O)(C(=O)CO)C[C@@H]3O[C@H]1C[C@H](N)[C@H](O)[C@H](C)O1 )
# output 8400

----------
- test description: organ distribution of DXR after administration free or in liposomes
- Type: in vivo
- test conditions: skeletal muscle; 5 hrs; read-out: DXR level in Skeletal Muscle
reported property: concentration at 5 h

# input # get_value(readout='concentration at 5 h', item= COc1cccc2c1C(=O)c1c(O)c3c(c(O)c1C2=O)C[C@@](O)(C(=O)CO)C[C@@H]3O[C@H]1C[C@H](N)[C@H](O)[C@H](C)O1 )
# output 2800 ng/g

----------
- test description: organ distribution of DXR after administration free or in liposomes
- Format: in vivo
- test conditions: lungs; 1 hr; read-out: DXR level in Lungs
reported property: concentration at 1 h (ng/g)
State just the number; it will be interpreted in ng/g.

# input # get_value(readout='concentration at 1 h', item= COc1cccc2c1C(=O)c1c(O)c3c(c(O)c1C2=O)C[C@@](O)(C(=O)CO)C[C@@H]3O[C@H]1C[C@H](N)[C@H](O)[C@H](C)O1 )
# output 13200

----------
- test description: organ distribution of DXR after administration free or in liposomes
- Type: in vivo
- test conditions: heart; 24 hrs; read-out: DXR level in Heart
reported property: concentration at 24 h (ng/g)
State just the number; it will be interpreted in ng/g.

# input # get_value(readout='concentration at 24 h', item= COc1cccc2c1C(=O)c1c(O)c3c(c(O)c1C2=O)C[C@@](O)(C(=O)CO)C[C@@H]3O[C@H]1C[C@H](N)[C@H](O)[C@H](C)O1 [DXR, doxorubicin] )
# output 900
